runDescription: Steady-state volume of distribution of compound when administered intravenously as a mixture (five-in-one dose) to a single dog.
Format: ADME, organism-based, Canis lupus familiaris
recordedConditions: in vivo, iv, read-out: Vss
Form field: Vd (one value per entry).
Only the number, expressed in L/kg, is required.

querysmiles=COc1ccc(CCN2CCC(c3nc(COCC(F)(F)F)c(-c4ccccc4)o3)CC2)cc1S(N)(=O)=O recordedendpoint=Vd unit=L/kg reportedmeasurement=0.473

## Task Please supply the value of reported Vd for the item COc1ccc(CCN2CCC(c3nc(COCC(F)(F)F)c(-c4ccccc4)o3)CC2)cc1S(=O)(=O)NCCNC(C)=O
## Result 2.83

## Task Please supply the value of reported Vd for the item CNC(=O)CN(C)S(=O)(=O)c1cc(CCN2CCC(c3nc(COCC(F)(F)F)c(-c4ccc(F)cc4)o3)CC2)ccc1OC
## Result 2.86

## Task Please supply the value of reported Vd for the item CNC(=O)CN(C)S(=O)(=O)c1cc(CCN2CCC(c3nc(COCC(F)(F)F)c(-c4ccccc4)o3)CC2)ccc1OC
## Result 2.76

## Task Please supply the value of reported Vd for the item COc1ccc(CCN2CCC(c3nc(COCC(F)(F)F)c(-c4ccc(F)cc4)o3)CC2)cc1S(N)(=O)=O
## Result 0.33

---

runDescription: Steady-state volume of distribution of compound when administered intravenously as an individual dose to a single dog.
Assay type: ADME, organism-based, Canis lupus familiaris
recordedConditions: in vivo, iv, read-out: Vss
Field: label. Allowed values: y (Vd < 0.6 L/kg) or n (Vd >= 0.6 L/kg).

querysmiles=CNC(=O)CN(C)S(=O)(=O)c1cc(CCN2CCC(c3nc(COCC(F)(F)F)c(-c4ccccc4)o3)CC2)ccc1OC label=n
querysmiles=CNC(=O)CN(C)S(=O)(=O)c1cc(CCN2CCC(c3nc(COCC(F)(F)F)c(-c4ccc(F)cc4)o3)CC2)ccc1OC label=n
querysmiles=COc1ccc(CCN2CCC(c3nc(COCC(F)(F)F)c(-c4ccc(F)cc4)o3)CC2)cc1S(N)(=O)=O label=y

## Task Does the reported Vd of the following compound sit strictly below 0.6 L/kg? COc1ccc(CCN2CCC(c3nc(COCC(F)(F)F)c(-c4ccccc4)o3)CC2)cc1S(N)(=O)=O
## Result y
